Hey, just so you know, these numbers are from PubChem BioAssay (NCI).

- System: IGROV1 ovarian
- testMethodNotes: NCI-60 one-dose screen, 48 h (100 = growth as untreated, 0 = no growth, -100 = all killed)
- conditionInfo: 10 µM unless noted
Compounds without any hit were thinned out: in the full panel of roughly 83,000, 20% have a hit.
measure: growth (%)
Please reply with the bare figure in % and do not write the unit itself.

Example results:
INSERT INTO measurements (compound, unittext, experimentalvalue) VALUES
  ('CCc1cccc2c3c(sc12)C(c1ccc(Cl)cc1)C(C#N)=C(/N=C/c1ccc(Cl)cc1)O3 (stereo not drawn)', '%', 28.1),
  ('C[C@@H]1C[C@H]2C(=O)O[C@@H](C)C(NC(=O)[C@H](Cc3cc(F)cc(F)c3)NC(=O)Nc3ccc(Cl)cc3F)C(=O)N3CCC[C@H]3C(=O)N3CCCC[C@H]3C(=O)N[C@@H](CO)C(=O)N2C1 (stereo partly drawn)', '%', 47.9);

Could you now consider this next compound?
Output growth of `NS(=O)(=O)c1ccc(-n2cc(-c3cccc(NC(=O)c4ccc(N5CCOCC5)c(C(F)(F)F)c4)c3)nn2)cc1` 40.3

* * *

- Test system: SNB-19 CNS
- testMethodNotes: NCI-60 one-dose screen, 48 h
- conditionInfo: 10 µM unless noted
Compounds without any hit were thinned out: in the full panel of roughly 83,000, 20% have a hit. Calls of active or inactive are those of the source. The calls were made as follows: active = growth percent below 10; inactive = the rest.
Outcome (select one): T = active, F = inactive

A selection of reference data follows.
INSERT INTO results (chemicalstructure, label) VALUES
  ('CCn1c(SCC(=O)Nc2cccc(C(=O)/C=C/c3ccc(Br)cc3)c2)nc2ccccc2c1=O', 'F'),
  ('Cc1ccc(CSc2nc(-c3ccc(Cl)cc3)c(C#N)c(N3CCNCC3)n2)cc1', 'F'),
  ('CCOc1ccc(C(=O)Nc2ncc(Cc3ccc(F)cc3)s2)cc1', 'F'),
  ('NC(=O)c1c(NC(=O)c2ccccc2C(F)(F)F)sc2c1CCC(=O)C2', 'F'),
  ('COc1cc(-c2nnc(SCc3ccc(O)c4ncccc34)n2-c2ccccc2)cc(OC)c1OC', 'T'),
  ('N#Cc1c(-c2cccs2)cc(-c2cnccn2)nc1SCC(=O)c1ccc(F)cc1', 'F'),
  ('O=C(Nc1cccc(C(F)(F)F)c1)c1cc(-c2ccc(F)cc2F)ccc1O', 'F'),
  ('Nc1cc(-c2c[nH]c3ccc(Br)cc23)nc2cc(-c3c[nH]c4ccc(Br)cc34)nn12', 'F');

# lookup: test call for `C#C[C@]1(O)CC[C@H]2[C@@H]3CC=C4c5sc(-c6cccc(O)c6)nc5CC[C@]4(C)[C@H]3CC[C@@]21C` T

* * *

- Tested on: K-562 leukemia
- testMethodNotes: NCI-60 one-dose screen, 48 h (100 = growth as untreated, 0 = no growth, -100 = all killed)
- conditionInfo: 10 µM unless noted
This is part of a sample that, as a whole, favours compounds with a hit. Of some 83,000 tested, about 20% had one in any assay. The source made the active and inactive calls. The calls were made as follows: active = growth percent below 10; inactive = the rest.
# growth per record follows

Example results:
INSERT INTO results (molecule, measure, experimentalvalue) VALUES
  ('CC[C@@H](CO)Nc1ccc2ncc(C#Cc3cncc(C(=O)Nc4ccc(CN5CCN(C)CC5)c(C(F)(F)F)c4)c3)n2n1', 'growth', '0.898% (active)'),
  ('Cc1ccc2c(c1)C13C(=C2Br)CCCN1C(=O)c1ccccc13 (centres undefined)', 'growth', '46.3% (inactive)');

Output growth of COc1c(N2CC3CCCNC3C2)c(F)cc2c(=O)c(C(=O)N/N=C/c3c[nH]c4ccccc34)cn(C3CC3)c12 (centres undefined) 3.26% (active)

Output growth of Cc1cccc2c3c(sc12)C(c1ccc(Cl)cc1)c1c(nc(CC(=O)Nc2ccccc2)[nH]c1=O)O3 (centres undefined) 20.9% (inactive)

Output growth of `CC1(COc2ccc3ncc(C#Cc4cncc(C(=O)Nc5cccc(C(F)(F)F)c5)c4)n3n2)COC1` 47.8% (inactive)

Output growth of CCCn1cnc2c(c1=N)C(c1ccc(OC)cc1)c1sc3c(C)cccc3c1O2 (centres undefined) 13% (inactive)

Output growth of CC(=O)C1=C(C)NC(NNC(N)=S)=NC1c1ccccc1 (centres undefined) 113% (inactive)

Output growth of `Cc1nn(-c2ccccc2)c2ncnc(N/N=C/c3cccc(O)c3)c12` 13.4% (inactive)

Output growth of `O=C1[C@@H]2Cc3c([nH]c4ccccc34)[C@H](c3c(Cl)cccc3Cl)N2C(=O)CN1C1CCN(CC2CCCCC2)CC1` 1.73% (active)

Output growth of `NC(=O)c1cccc(C#CCNC[C@H]2C[C@@H](n3ccc4c(Cl)ncnc43)[C@H](O)[C@@H]2O)c1` 111% (inactive)

Output growth of `O=c1c2ccccc2nc(COc2ccccc2)n1NS(=O)(=O)c1ccc(Cl)cc1` 47.3% (inactive)

Output growth of `N#Cc1cccc(NC(=O)c2cc(-c3ccc(F)cc3F)ccc2O)c1` 11.8% (inactive)

Output growth of CC(=O)N1N=C(c2cccc(-n3cccc3)c2)CC1c1cccc(F)c1 (centres undefined) 99.9% (inactive)

Output growth of `COc1ccccc1N1CCN(C2=CC(=O)C(C)=C(C)C2=O)CC1` 96.9% (inactive)

Output growth of Cc1c(Cl)cccc1S(=O)(=O)Nc1ccc2c(c1)C(=O)N(C1CCC(=O)NC1=O)C2=O (centres undefined) 101% (inactive)

Output growth of `CCOC(=O)c1c(N)c(C#N)cn1-c1cc(OC)c(OC)c(OC)c1` 105% (inactive)
